# target: T1, human CXCR2 (human, UniProt P25025 1-360)
# T1 sequence: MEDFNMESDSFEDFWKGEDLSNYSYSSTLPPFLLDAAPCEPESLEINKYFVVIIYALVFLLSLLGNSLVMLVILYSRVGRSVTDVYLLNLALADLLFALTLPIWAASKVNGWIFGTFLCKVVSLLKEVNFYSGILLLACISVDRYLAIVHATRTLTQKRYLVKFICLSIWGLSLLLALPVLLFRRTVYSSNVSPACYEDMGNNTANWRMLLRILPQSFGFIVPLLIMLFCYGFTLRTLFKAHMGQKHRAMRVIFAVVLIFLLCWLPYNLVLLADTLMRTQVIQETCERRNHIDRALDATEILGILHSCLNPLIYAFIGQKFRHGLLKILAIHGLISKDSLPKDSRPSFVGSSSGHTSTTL
# assay procedure: cell-based or functional assay
readout kind: CXCL8 Fold Improvement over 4A8 WT (fold)
Output spec: scalar in fold, unitless text.

binder | CXCL8 Fold Improvement over 4A8 WT [fold]
BKO-4A8-103c (antibody, human IgG4 S228P, lambda, V domains shown, IgG4 S228P, lambda) VH: EVQLLESGGGLVQPGGSLRLSCAASGFTFSSSTQSWVRQPPGKGLEWVSAISGSGGSTYYADSVKGRFTISRDNSKNTLYLQMNSLRAEDTAVYYCAIQMGYWGQGILVTVSS VL: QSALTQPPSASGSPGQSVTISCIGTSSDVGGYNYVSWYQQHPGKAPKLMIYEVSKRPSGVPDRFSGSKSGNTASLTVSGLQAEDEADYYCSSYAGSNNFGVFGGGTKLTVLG | 0.53
BKO-4A8-105c (antibody, human IgG4 S228P, lambda, V domains shown, IgG4 S228P, lambda) VH: EVQLLESGGGLVQPGGSLRLSCAASGFTFSSSTQSWVRQPPGKGLEWVSAISGSGGSTYYADSVKGRFTISRDNSKNTLYLQMNSLRAEDTAVYYCAIQAGYWGQGILVTVSS VL: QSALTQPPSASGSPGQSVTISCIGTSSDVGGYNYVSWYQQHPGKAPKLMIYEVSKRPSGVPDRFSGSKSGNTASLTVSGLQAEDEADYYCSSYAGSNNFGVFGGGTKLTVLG | 0.36
BKO-4A8-104c (antibody, human IgG4 S228P, lambda, V domains shown, IgG4 S228P, lambda) VH: EVQLLESGGGLVQPGGSLRLSCAASGFTFSSSTQSWVRQPPGKGLEWVSAISGSGGSTYYADSVKGRFTISRDNSKNTLYLQMNSLRAEDTAVYYCAIQKGYWGQGILVTVSS VL: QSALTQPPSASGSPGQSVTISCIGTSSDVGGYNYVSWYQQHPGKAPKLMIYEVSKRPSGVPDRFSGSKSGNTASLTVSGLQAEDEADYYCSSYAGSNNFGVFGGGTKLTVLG | 0.88

Attention now turns to another entry.
Query: Consider the binder shown here: BKO-4A8-101c (antibody, human IgG4 S228P, lambda, V domains shown) VH: EVQLLESGGGLVQPGGSLRLSCAASGFTFSSSTQSWVRQPPGKGLEWVSAISGRGRSTYYADSVKGRFTISRDNSKNTLYLQMNSLRAEDTAVYYCAIQAGYWGQGILVTVSS VL: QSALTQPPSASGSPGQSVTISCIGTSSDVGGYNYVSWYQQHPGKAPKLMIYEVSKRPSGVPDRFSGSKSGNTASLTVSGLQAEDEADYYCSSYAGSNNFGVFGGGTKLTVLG What is its recorded CXCL8 Fold Improvement over 4A8 WT?
Reply: 2.39
